Reported inhibition at 100 µg/mL values for the following molecules.
System: Escherichia coli
Assay: Antibacterial activity against Escherichia coli at 100 ug/mL after 48 hrs by cup-plate method
Assay type: functional
READOUT_NAME: inhibition at 100 µg/mL (%)

>  <SMILES_STRUCTURE>
O=c1cc(COc2ccc(Br)cc2)c2ccc(Cl)cc2[nH]1

>  <TARGET_OF_ASSAY>
Escherichia coli

>  <READOUT_NAME>
inhibition at 100 µg/mL

>  <RESULT_UNIT>
%

>  <NUMERIC_READOUT>
50

$$$$
>  <SMILES_STRUCTURE>
O=c1cc(COc2ccc(F)cc2)c2cc(Cl)ccc2o1

>  <TARGET_OF_ASSAY>
Escherichia coli

>  <READOUT_NAME>
inhibition at 100 µg/mL

>  <RESULT_UNIT>
%

>  <NUMERIC_READOUT>
94

$$$$
>  <SMILES_STRUCTURE>
O=c1cc(COc2ccc(F)cc2)c2ccc(Cl)cc2[nH]1

>  <TARGET_OF_ASSAY>
Escherichia coli

>  <READOUT_NAME>
inhibition at 100 µg/mL

>  <RESULT_UNIT>
%

>  <NUMERIC_READOUT>
78

$$$$
>  <SMILES_STRUCTURE>
CCn1cc(C(=O)O)c(=O)c2cc(F)c(N3CCNCC3)cc21

>  <TARGET_OF_ASSAY>
Escherichia coli

>  <READOUT_NAME>
inhibition at 100 µg/mL

>  <RESULT_UNIT>
%

>  <NUMERIC_READOUT>
100

$$$$
>  <SMILES_STRUCTURE>
O=c1cc(COc2ccc(Cl)cc2)c2cc(Cl)ccc2[nH]1

>  <TARGET_OF_ASSAY>
Escherichia coli

>  <READOUT_NAME>
inhibition at 100 µg/mL

>  <RESULT_UNIT>
%

>  <NUMERIC_READOUT>
50

$$$$
>  <SMILES_STRUCTURE>
Cc1ccc2c(CNc3ccc(Br)cc3)cc(=O)oc2c1

>  <TARGET_OF_ASSAY>
Escherichia coli

>  <READOUT_NAME>
inhibition at 100 µg/mL

>  <RESULT_UNIT>
%

>  <NUMERIC_READOUT>
64

$$$$

---

Reported zone of inhibition at 50 µg/mL values for the following compounds.
Test system: Macrophomina phaseolina
Assay: Antifungal activity against Rhizoctonia bataticola at 50 ug/mL after 48 hrs by cup-plate method
Format: functional
Conditions: read-out: IZ
READOUT_NAME: zone of inhibition at 50 µg/mL

>  <SMILES_STRUCTURE>
Cc1ccc2c(COc3ccc(F)cc3)cc(=O)oc2c1

>  <TARGET_OF_ASSAY>
Macrophomina phaseolina

>  <RESULT>
80 mm

$$$$
>  <SMILES_STRUCTURE>
O=c1cc(COc2ccc(Br)cc2)c2ccc(Cl)cc2[nH]1

>  <TARGET_OF_ASSAY>
Macrophomina phaseolina

>  <RESULT>
80 mm

$$$$
>  <SMILES_STRUCTURE>
O=c1cc(COc2ccc(Br)cc2)c2cc(Cl)ccc2[nH]1

>  <TARGET_OF_ASSAY>
Macrophomina phaseolina

>  <RESULT>
82 mm

$$$$

---

Test system: Aspergillus niger
Assay: Antifungal activity against Aspergillus niger at 50 ug/mL after 48 hrs by cup-plate method
Type: functional
READOUT_NAME: inhibition at 50 µg/mL

>  <SMILES_STRUCTURE>
Cc1ccc2c(COc3ccc(Br)cc3)cc(=O)oc2c1

>  <RESULT>
22%

$$$$
>  <SMILES_STRUCTURE>
O=c1cc(CNc2ccc(F)cc2)c2cc(Cl)ccc2[nH]1

>  <RESULT>
47%

$$$$
>  <SMILES_STRUCTURE>
Cc1cccc2c(COc3ccc(F)cc3)cc(=O)[nH]c12

>  <RESULT>
36%

$$$$
>  <SMILES_STRUCTURE>
O=c1cc(COc2ccc(Br)cc2)c2ccc(Cl)cc2[nH]1

>  <RESULT>
35%

$$$$
